target: Hexose transporter 1 (Plasmodium falciparum); experiment: ST_JUDE_LEISH: Cytotoxicity at 2uM final concentration against transgenic Leishmania Mexicana promastigotes LmPfHT that are glucose transport deficient and complemented with the Plasmodium falciparum hexose transporter. Activity is measured by DNA content using SYBR green in vitro; format: functional
OBSERVATION_TYPE: inhibition (%)
Hi! Could you send only the number? It should be in %, unit omitted.

Query: Look up inhibition for this molecule: `Cc1[nH]c(C)c(-c2ccc(CCc3ccc(C(F)(F)F)cc3)nc2)c(=O)c1Cl`
Reply: 3.29

Query: Look up inhibition for this molecule: `O=S1(=O)C=C(c2ccccc2)CC1`
Reply: 1.28

Query: Look up inhibition for this molecule: `CCCc1cc(Cc2cnc(N)nc2N)cc(CCC)c1OCCCCC(=O)OC`
Reply: 0.4

Query: Look up inhibition for this molecule: `Cc1ccc2sc(N(CCCn3ccnc3)C(=O)c3ccco3)nc2c1C`
Reply: 2.76

Query: Look up inhibition for this molecule: `COc1ccc(-c2cccc(NC(=O)c3ccc(Cl)cc3)c2)cc1CN1CCCN(C)CC1`
Reply: 8.76

Query: Look up inhibition for this molecule: `FC(F)(F)COc1c(CCNCCCCNCCc2ccc3ccccc3c2OCC(F)(F)F)ccc2ccccc12`
Reply: 103

Query: Look up inhibition for this molecule: `c1ccc(COc2ccc(Nc3ncnc4cnc(-c5ccc(CNc6cccnc6)o5)cc34)cc2)cc1`
Reply: 3.46

Query: Look up inhibition for this molecule: `CS(=O)(=O)CCNCc1cccc(-c2ccc3c(Nc4cc(O)c(Cl)cc4F)ccnc3c2)c1`
Reply: 4.71

Query: Look up inhibition for this molecule: `COc1cccc(C2CCN(CCCCNC(=O)c3ccc(NC(=O)c4ccc(Cl)cc4)cc3)CC2)c1`
Reply: 2.82

Query: Look up inhibition for this molecule: `CC(=O)Nc1nc(C(=O)Nc2cccc(-c3cccc(-c4nc5cc(F)ccc5[nH]4)c3)c2)cs1`
Reply: 3.28

Query: Look up inhibition for this molecule: `COc1ccc(Cl)cc1N1CCN(CCCNC(=O)c2ccc(-c3nc4cc(Cl)c(C)cc4[nH]3)c(F)c2)CC1`
Reply: 0.19

Query: Look up inhibition for this molecule: `COc1ccc(C(=O)NCCCCN2CCC(c3ccc4c(c3OC)CCCC4)CC2)cc1-c1ccc(C(F)(F)F)cc1`
Reply: 0.84

Query: Look up inhibition for this molecule: `O=C(/C=C/c1ccc(C(F)(F)F)cc1)NCCCCCN1CCCN(C(=O)Nc2cccc(Cl)c2)CC1`
Reply: -1.13

Query: Look up inhibition for this molecule: `CC(C)(CNCc1ccc(Cl)cc1)c1nc(-c2ccc(Cl)c(O)c2)c(-c2ccncc2)[nH]1`
Reply: 0.31

Query: Look up inhibition for this molecule: O=C(NC1CCC1)C1CCN(C(c2ccccc2)c2cc(F)cc(F)c2)CC1 (stereo unspecified)
Reply: 7.32

Query: Look up inhibition for this molecule: N#Cc1ccc2c(c1)CN(C1CCC(NC(=O)/C=C/c3cc(C(F)(F)F)cc(C(F)(F)F)c3)CC1)CCC2 (stereo unspecified)
Reply: 1.36

Query: Look up inhibition for this molecule: `COc1ccc2nccc([C@@H](O)CN3CCC(NCc4cc5ccccc5nc4O)CC3)c2c1`
Reply: 1.94

Query: Look up inhibition for this molecule: `COc1ccc(-c2ccc(NC(=O)c3ccc(C#N)cc3)c(F)c2)cc1CN(C)CCN(C)C`
Reply: -0.56

Query: Look up inhibition for this molecule: `Cc1oc(-c2ccc(Cl)cc2)cc1C(=O)NCCC1CCN(CCCCCNC(=O)/C=C/c2ccc(Cl)c(Cl)c2)CC1`
Reply: -1.53

Query: Look up inhibition for this molecule: `Cc1ccc2[nH]c(NC#N)nc2c1`
Reply: 0.67

Query: Look up inhibition for this molecule: `Clc1ccc(CNCCCCCCNCc2ccc(Cl)cc2)cc1`
Reply: 1.71

Query: Look up inhibition for this molecule: `CNCCNCc1cccc(-c2cccc(-c3nc4cc(F)ccc4[nH]3)c2)c1`
Reply: 7.92

Query: Look up inhibition for this molecule: `Cc1ccc(CNC(=O)c2cc3c(=O)n4cccc(C)c4nc3n(CCN3CCOCC3)c2=N)cc1`
Reply: 1

Query: Look up inhibition for this molecule: `Cc1ccc2nc(C)cc(Nc3ccccc3O)c2c1`
Reply: -1.41

Query: Look up inhibition for this molecule: `CC(=O)Nc1nc(C(=O)Nc2cccc(-c3ccc(-c4nc5cc(F)ccc5[nH]4)cc3)c2)cs1`
Reply: 1.38

Query: Look up inhibition for this molecule: `CCN1CCN(c2ccc(Nc3c4ccccc4nc4ccccc34)cc2)CC1`
Reply: 10.6

----------
biological target: Solute carrier family 2, facilitated glucose transporter member 1 (Homo sapiens) (UniProt P11166); assay: ST_JUDE_LEISH: Cytotoxicity at 2uM final concentration against transgenic Leishmania Mexicana promastigotes LmGLUT1 that are glucose transport deficient and complemented with the human glucose transporter GLUT1. Activity is measured by DNA content using SYBR green in vitro; type: functional
Sequence (P11166 whole entry): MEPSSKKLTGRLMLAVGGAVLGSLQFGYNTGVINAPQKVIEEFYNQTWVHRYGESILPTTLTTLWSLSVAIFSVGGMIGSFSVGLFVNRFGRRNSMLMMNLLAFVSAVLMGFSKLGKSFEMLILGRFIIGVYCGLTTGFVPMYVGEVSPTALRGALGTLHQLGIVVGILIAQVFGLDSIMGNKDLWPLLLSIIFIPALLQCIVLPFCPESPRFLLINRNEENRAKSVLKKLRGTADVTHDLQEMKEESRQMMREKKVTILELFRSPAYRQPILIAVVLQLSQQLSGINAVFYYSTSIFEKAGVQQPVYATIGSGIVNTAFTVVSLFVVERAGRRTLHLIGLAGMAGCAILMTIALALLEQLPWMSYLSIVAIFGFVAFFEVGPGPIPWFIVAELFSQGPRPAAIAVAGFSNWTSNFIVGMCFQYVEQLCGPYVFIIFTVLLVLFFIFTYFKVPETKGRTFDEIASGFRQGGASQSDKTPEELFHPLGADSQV
OBSERVATION_TYPE: inhibition (%)
Hi! Could you send only the number? It should be in %, unit omitted.

Query: Look up inhibition for this compound: `COc1ccc2nccc([C@@H](O)CN3CCC(NC(=O)c4ccc(Cl)c(OC)c4)CC3)c2c1`
Reply: 4.62

Query: Look up inhibition for this compound: `Cc1cc(C(=O)NC2CCN(Cc3ccccc3)CC2)ccc1-c1nc2cc(Cl)c(Cl)cc2[nH]1`
Reply: 3.63

Query: Look up inhibition for this compound: `CN1CCCc2ccc(NC(=O)C=Cc3ccc(-c4ccc(F)cc4F)o3)cc2C1`
Reply: 0.88

Query: Look up inhibition for this compound: `CN(CCN)Cc1cccc(-c2cccc(-c3nc4cc(F)ccc4[nH]3)c2)c1`
Reply: 1.11

Query: Look up inhibition for this compound: CCCNCc1ccc(-c2ccc(CN(CC3CCCO3)C(=O)COc3ccccc3Cl)cc2)nc1 (stereo not given)
Reply: 4.33

Query: Look up inhibition for this compound: `CCN(CC)CCNC(=O)/C(=C/C=C/c1cc2cc(Cl)c(Cl)cc2[nH]1)OC`
Reply: 2.44

Query: Look up inhibition for this compound: `COc1cc(N)cc2sc(N)nc12`
Reply: -1.04

Query: Look up inhibition for this compound: `CCCCCCCN1CC[C@@H](CCCc2ccnc3ccc(OCCN4CCOCC4)cc23)[C@@H](CC)C1`
Reply: 10.6

Query: Look up inhibition for this compound: `CNC(=O)Cc1ccc(C(=O)Nc2cccc(-c3csc(-c4nc5ccccc5[nH]4)c3)c2)cc1`
Reply: -2.64

Query: Look up inhibition for this compound: CCCNC(=O)C1CCN(C(c2ccccc2)c2ccc(Cl)c(Cl)c2)CC1 (stereo not given)
Reply: 4.42

Query: Look up inhibition for this compound: `CCN1CCC(N(Cc2ccc(-c3ccc(C(F)(F)F)cc3)cc2)C(=O)CCCCn2c(CCc3cccc(F)c3F)nc(=O)c3ccccc32)CC1`
Reply: 1.08

Query: Look up inhibition for this compound: `Cc1ccc(CNC(=O)[C@H](Cc2ccccc2)Nc2cc(C)nc(NCCc3ccc(F)cc3)n2)cc1`
Reply: 5.47

Query: Look up inhibition for this compound: CCC(C)NC(=O)Cn1c2ncccc2c(=O)n1-c1ccc(C)cc1 (stereo not given)
Reply: 5.25

Query: Look up inhibition for this compound: `Cn1cccc1CCNCc1ccc(-c2cccc(-c3nc4ccccc4[nH]3)c2)cc1`
Reply: 3.79

Query: Look up inhibition for this compound: `COc1ccc(CNC2CCN(C)CC2)cc1-c1ccc(S(=O)(=O)NC2CCC2)c(C)c1`
Reply: 0

----------
target: Solute carrier family 2, facilitated glucose transporter member 1 (Homo sapiens) (UniProt P11166); experiment: ST_JUDE_LEISH: Cytotoxicity at 2uM final concentration against transgenic Leishmania Mexicana promastigotes LmGLUT1 that are glucose transport deficient and complemented with the human glucose transporter GLUT1. Activity is measured by DNA content using SYBR green in vitro; assay type: functional
Would you kindly list inhibition for each of these molecules?
Hi! Could you send only the number? It should be in %, unit omitted.

Query: Look up inhibition for this molecule: `FC(F)(F)c1ccc2[nH]ccc(=NN=Cc3ccc(Cl)cc3)c2c1`
Reply: 3.42

Query: Look up inhibition for this molecule: `Clc1cccc(-c2nc(Nc3ccnc(-c4ccc(CN5CCOCC5)cc4)c3)c3ccccc3n2)c1`
Reply: 4.42

Query: Look up inhibition for this molecule: `O=C(Nc1cccc(-c2ccc(-c3nc4ccccc4[nH]3)cc2)c1)Nc1ccc(F)c(F)c1F`
Reply: -2.14

Query: Look up inhibition for this molecule: `CCN1C(=O)C(=NN=C(S)N2CCCC2)c2ccccc21`
Reply: -0.3

Query: Look up inhibition for this molecule: `O=S(=O)(Nc1ccc(CCN2CCC(N3CCCCC3)CC2)cc1)c1ccccc1C(F)(F)F`
Reply: 13.5

Query: Look up inhibition for this molecule: `COCCNCc1ccc(-c2cccc(CNC3CCN(Cc4ccccc4)CC3)c2)cc1`
Reply: 4

Query: Look up inhibition for this molecule: `c1cc(CN2CCN(CCN3CCOCC3)CC2)cc(-c2csc(-c3nc4ccccc4[nH]3)c2)c1`
Reply: 5.51

Query: Look up inhibition for this molecule: `CN(C)Cc1ccc(-c2cccc(NC(=O)c3cccc(Cl)c3)c2)cc1`
Reply: 2.44

Query: Look up inhibition for this molecule: O=C(Nc1ccc2c(c1)CCN2C1CCN(Cc2cccc(C(F)(F)F)c2)C1)c1ccco1 (stereo unspecified)
Reply: -2.78

Query: Look up inhibition for this molecule: `COCCNCc1cccc(-c2ccc3c(Nc4ccc(F)cc4Cl)ccnc3c2)c1`
Reply: -1.97

Query: Look up inhibition for this molecule: CC(C)(C)C(Cn1ccnc1)NCc1c[nH]nc1-c1ccc(-c2ccccc2)cc1 (stereo unspecified)
Reply: 11.2

Query: Look up inhibition for this molecule: `Cc1cc(-c2ccc3occ(CCN)c3c2)cnc1N`
Reply: 1.36

Query: Look up inhibition for this molecule: `O=C(Nc1cccc(Cl)c1)N[C@H]1CCN(Cc2ccc(OCCCN3CCCCC3)cc2)C1`
Reply: 9.4

Query: Look up inhibition for this molecule: `O=C(Cc1c[nH]cn1)Nc1cccc(-c2cccc(-c3nc4ccccc4[nH]3)c2)c1`
Reply: 9.66

Query: Look up inhibition for this molecule: `CCOC(=O)c1ccc(-n2c(C)cc(C=C3SC(=Nc4ccccc4)N(C4CCCC4)C3=O)c2C)cc1`
Reply: 3.76

Query: Look up inhibition for this molecule: `O=C(Nc1ccc2c(c1)CCC2)c1cccc(N2CCN(c3ccncc3)CC2)c1`
Reply: 1.86

Query: Look up inhibition for this molecule: `CC(C)CCNc1nc(NCCCc2ccccc2)c2cc(O)ccc2n1`
Reply: 24.8

Query: Look up inhibition for this molecule: `COc1cccc(-c2ccc3c(-c4cccc(NC(C)=O)c4)cnc(N)c3c2)c1`
Reply: 5.41

Query: Look up inhibition for this molecule: `CCN(CC)CCN(Cc1ccc(-c2ccc(C(F)(F)F)cc2)cc1)C(=O)Cn1c(CCc2ccc(F)c(C#N)c2)nc(=O)c2ccccc21`
Reply: 6.73

Query: Look up inhibition for this molecule: `Cc1ccc(NCC(=O)Nc2ccc(F)c(Cl)c2)cc1S(=O)(=O)N1CCOCC1`
Reply: 2.54

Query: Look up inhibition for this molecule: `O=C(/C=C/c1ccc(Cl)c(Cl)c1)NCCCCCCN1CCCN(C(=O)Nc2cccc(C(F)(F)F)c2)CC1`
Reply: 5.59

Query: Look up inhibition for this molecule: `Cc1[nH]c(C)c(-c2ccc(CCc3ccc(C(F)(F)F)cc3)nc2)c(=O)c1Cl`
Reply: 2.59

Query: Look up inhibition for this molecule: `CCN(CC)Cc1cc(NC(=O)c2ccccc2O)ccc1Oc1ccc(Cl)cc1`
Reply: 2.02

Query: Look up inhibition for this molecule: `c1ccc(CCNc2ccnc(Nc3ccc4cn[nH]c4c3)n2)cc1`
Reply: 17.8

Query: Look up inhibition for this molecule: CC1CN(c2cccc3c2nc(-c2cncc(C#N)c2)n3CCNCc2ccccc2)CC(C)O1 (stereo unspecified)
Reply: 3.09

Query: Look up inhibition for this molecule: `Nc1cc2c(C3CCN(CC4CCN(C(=O)/C=C/c5ccc(Cl)c(Cl)c5)CC4)CC3)c[nH]c2cn1`
Reply: 1.83

Query: Look up inhibition for this molecule: CN1CCN(CC(O)CNC(=O)Nc2ccc(Cl)cc2)CC1 (stereo unspecified)
Reply: 5.3

Query: Look up inhibition for this molecule: `CCCN1CCN(CCNC(=O)c2cccc(Nc3nccc(Nc4ccc(Oc5ccccc5)cc4)n3)c2)CC1`
Reply: 0.38

Query: Look up inhibition for this molecule: `CN(C)CCNCc1nc(-c2ccc3c(Nc4ccc(Oc5ccccc5)cc4)ccnc3c2)cs1`
Reply: -2.05

Query: Look up inhibition for this molecule: `COc1cc2c(cc1O)[C@@H]1[C@H](O)[C@@H](O)C=C3CCN(C2)[C@H]31`
Reply: 4.04

Query: Look up inhibition for this molecule: `CC(C)(C)NS(=O)(=O)c1cc(C(=O)N2CCC(CCN3CCC(C(=O)c4ccc(F)cc4)CC3)(c3cccc(F)c3)CC2)c(Cl)cc1F`
Reply: 7.28
